Hey, just so you know, these numbers are from PubChem BioAssay (EPA / NIEHS).

- assay text: TOX21_p53_BLA_p2_viability: Viability Assessment in the Tox21 HCT-116 p53 Agonism Beta-lactamase Assay, Phase 2 (AID 2283591);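 note: compound exposure lasted 16 h at 37 °C; actives lower the ATP signal meaning cytotoxicity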
Results filed as inconclusive are left out. The source made the active and inactive calls. Rule for the calls: active = hit-call score of the fitted dose curve at least 0.9, where 1 is the maximum; inconclusive = response in the unintended direction; inactive = score below 0.9.
Outcomes: True = active, False = inactive

- molecule: "Nc1nnc(-c2ccc([N+](=O)[O-])o2)o1"
  assigned class: "False"
- molecule: "Nc1ccc(N=Nc2ccccc2)c(N)c1"
  assigned class: "False"
- molecule: "O=C(OCC(COC(=O)c1ccccc1)(COC(=O)c1ccccc1)COC(=O)c1ccccc1)c1ccccc1"
  assigned class: "False"
- molecule: "C[C@@H]1O[C@@H](OC[C@H]2O[C@@H](Oc3c(-c4ccc(OCCO)c(OCCO)c4)oc4cc(OCCO)cc(O)c4c3=O)[C@H](O)[C@@H](O)[C@@H]2O)[C@H](O)[C@H](O)[C@H]1O"
  assigned class: "False"
- molecule: "CN1CCN(CCCN2c3ccccc3Sc3ccc(S(=O)(=O)N(C)C)cc32)CC1"
  assigned class: "False"
- molecule: "OCCCNc1ccccc1"
  assigned class: "False"
- molecule: "C=C(CC)C(=O)c1ccc(OCC(=O)O)c(Cl)c1Cl"
  assigned class: "False"
- molecule: "COc1nc(N)nc2nc[nH]c12"
  assigned class: "False"
- molecule: "CC(CN(C)C)C(C)(O)Cc1ccc(Cl)cc1 (configuration not stated)"
  assigned class: "False"
- molecule: "Cc1cccc(Nc2ccncc2S(=O)(=O)NC(=O)NC(C)C)c1"
  assigned class: "False"
- molecule: "C=C1c2cccc(O)c2C(O)=C2C(=O)[C@]3(O)C(O)=C(C(N)=O)C(=O)[C@@H](N(C)C)[C@@H]3[C@@H](O)[C@H]12"
  assigned class: "False"
- molecule: "Cc1nnc(C(C)C)n1C1C[C@H]2CC[C@@H](C1)N2CC[C@@H](NC(=O)C1CCC(F)(F)CC1)c1ccccc1 (some centres not stated)"
  assigned class: "False"
- molecule: "CN1c2cc(O)c(N=NC(N)=O)cc2CC1S(=O)(=O)O (configuration not stated)"
  assigned class: "False"
- molecule: "CC(C)(C)CC(C)(C)c1ccc(O)c(Cc2ccc(Cl)cc2Cl)c1"
  assigned class: "True"
- molecule: "O=Cc1ccc([N+](=O)[O-])cc1"
  assigned class: "False"
- molecule: "NS(=O)(=O)c1cc2c(cc1C(F)(F)F)NC(Cc1ccccc1)NS2(=O)=O (configuration not stated)"
  assigned class: "False"
- molecule: "O=C1c2ccccc2Cc2ccccc21"
  assigned class: "False"
- molecule: "Brc1c(NC2=NCCN2)ccc2nccnc12"
  assigned class: "False"
- molecule: "COC(=O)CCCC(=O)O"
  assigned class: "False"
- molecule: "C#C[C@]1(OC(C)=O)CC[C@H]2[C@@H]3CCC4=C/C(=N/O)CC[C@@H]4[C@H]3CC[C@@]21CC"
  assigned class: "True"
- molecule: "CCN(CC)c1cccc(O)c1"
  assigned class: "False"
- molecule: "CC1=C(C(=O)O)N2C(=O)[C@@H](NC(=O)[C@H](N)c3ccc(O)cc3)[C@H]2SC1"
  assigned class: "False"

----------
- Read-out: C-C motif chemokine 2 (Homo sapiens) (UniProt P13500)
- assay text: BSK_KF3CT_MCP1: BioMAP Diversity Plus: KF3CT Assay for Monocyte Chemoattractant Protein 1 (MCP1/CCL2) Biomarker Activity (AID 2283073)
- assay context: primary human keratinocytes with fibroblasts; actives raise or lower the signal
- Description: BSK_KF3CT is a cell-based, multiplexed-readout assay that uses keratinocytes and foreskin fibroblasts, a human skin primary cell co-culture, with measurements taken at 24 hours after chemical dosing in a 96-well plate.BSK_KF3CT_MCP1 is an assay component measured in the BSK_KF3CT assay. It measures MCP-1 antibody related to regulation of gene expression using ELISA technology.Data from the assay component BSK_KF3CT_MCP1 was analyzed into 1 assay endpoint. […]
The source made the active and inactive calls. How the source made its calls: active means hit-call score of the fitted dose curve at least 0.9, where 1 is the maximum; inactive means score below 0.9.
Outcome codes: active, inactive

- compound: "Oc1cccc2ccccc12"
  assigned class: "inactive"
- compound: "CCC(C)=NO"
  assigned class: "inactive"
- compound: "CCCCCCCCCC/C=C/C1CC(=O)OC1=O (configuration not stated)"
  assigned class: "inactive"
- compound: "CCC[Si](OC(C)=O)(OC(C)=O)OC(C)=O"
  assigned class: "inactive"
- compound: "O=C(C(=O)c1ccccc1)c1ccccc1"
  assigned class: "inactive"
- compound: "CCCCCCCCCCCCCCCCCC[N+](C)(C)C"
  assigned class: "active"
- compound: "Cc1cc(-n2nc3ccc(Cl)cc3n2)c(O)c(C(C)(C)C)c1"
  assigned class: "inactive"

----------
- assayed system: Cellular tumor antigen p53 (Homo sapiens) (UniProt P04637)
- Sequence (P04637 whole entry, looked up): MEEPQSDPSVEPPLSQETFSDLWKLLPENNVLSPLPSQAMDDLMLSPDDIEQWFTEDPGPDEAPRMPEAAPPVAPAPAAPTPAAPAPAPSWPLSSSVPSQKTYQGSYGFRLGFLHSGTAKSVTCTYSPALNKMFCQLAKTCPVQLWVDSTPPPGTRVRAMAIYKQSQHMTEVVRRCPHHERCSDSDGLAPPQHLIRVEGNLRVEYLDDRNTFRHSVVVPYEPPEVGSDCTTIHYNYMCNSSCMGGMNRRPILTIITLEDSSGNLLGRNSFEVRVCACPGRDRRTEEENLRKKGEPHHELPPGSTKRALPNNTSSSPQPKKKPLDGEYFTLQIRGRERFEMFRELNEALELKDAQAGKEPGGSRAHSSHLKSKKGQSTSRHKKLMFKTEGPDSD
- assay text: TOX21_p53_BLA_p5_ratio: Tox21 HCT-116 p53 Agonism Beta-lactamase Assay, Ratio, Phase 5 (AID 2283599)
Inconclusive results are not listed. Activity calls are given as the source filed them. The calls were made as follows: active = hit-call score of the fitted dose curve at least 0.9, where 1 is the maximum; inconclusive = response in the unintended direction; inactive = score below 0.9.
Labels: active, inactive

- molecule: "CCn1cc(C(=O)O)c(=O)c2cnc(N3CCCC3)nc21"
  assigned class: "inactive"
- molecule: "CN1[C@@H]2CC[C@H]1CC(NC(=O)n1c(=O)[nH]c3ccccc31)C2 (stereo not given in full)"
  assigned class: "inactive"
- molecule: "COc1ccc(N)c(OC)c1"
  assigned class: "inactive"
- molecule: "COc1cc2nc(N3CCN(C(=O)C4CCCO4)CC3)nc(N)c2cc1OC (stereo not given)"
  assigned class: "inactive"
- molecule: "O=C(O)c1cc(=O)[nH]c(=O)[nH]1"
  assigned class: "inactive"
- molecule: "CC(C)Cc1ccc([C@@H](C)C(=O)NS(C)(=O)=O)cc1"
  assigned class: "inactive"
- molecule: "c1ccc(-n2cnnn2)cc1"
  assigned class: "inactive"
- molecule: "COC(=O)C1=C(C)NC(COC(N)=O)=C(C(=O)OC(C)C)C1c1cccc(Cl)c1Cl (stereo not given)"
  assigned class: "active"
- molecule: "CNCCCC1c2ccccc2C=Cc2ccccc21"
  assigned class: "inactive"
- molecule: "Clc1ccc(COC(Cn2ccnc2)c2ccc(Cl)cc2Cl)c(Cl)c1 (stereo not given)"
  assigned class: "inactive"
- molecule: "Cc1ccccc1CNc1ncnc2c1ncn2[C@@H]1O[C@H](CO)[C@@H](O)[C@H]1O"
  assigned class: "inactive"
- molecule: "CC(=O)[C@@]1(O)CC[C@H]2[C@@H]3C=C(Cl)C4=CC(=O)CC[C@]4(C)[C@H]3CC[C@@]21C"
  assigned class: "active"
- molecule: "CC12CCC(C1)C(C)(C)C2=O (stereo not given)"
  assigned class: "inactive"
- molecule: "CC(=O)Nc1ccc(S(=O)(=O)Nc2ccc([N+](=O)[O-])cc2)cc1"
  assigned class: "inactive"
- molecule: "CCCCCCCCCCCCCCCCCCCCCC(=O)Nc1ccn([C@@H]2O[C@H](CO)[C@@H](O)[C@@H]2O)c(=O)n1"
  assigned class: "inactive"
- molecule: "Nc1cccc(S(=O)(=O)O)c1"
  assigned class: "inactive"
- molecule: "CC(C)(C)C(=O)C(=O)O"
  assigned class: "inactive"
- molecule: "Nc1nnnn1-c1ccccc1"
  assigned class: "inactive"
- molecule: "Brc1c(NC2=NCCN2)ccc2nccnc12"
  assigned class: "inactive"
- molecule: "C=CC(=O)Nc1cc2c(Nc3ccc(F)c(Cl)c3)ncnc2cc1OCCCN1CCOCC1"
  assigned class: "inactive"
- molecule: "NNc1nncc2ccccc12"
  assigned class: "inactive"
- molecule: "CC(C)(C)CC(=O)OCC(=O)[C@@]12OC(C)(C)O[C@@H]1C[C@H]1[C@@H]3CCC4=CC(=O)C=C[C@]4(C)[C@@]3(F)[C@@H](O)C[C@@]12C"
  assigned class: "inactive"
- molecule: "O=C1c2ccccc2CN2C(=O)c3ccccc3CN12"
  assigned class: "inactive"
- molecule: "CO[C@@]1(NC(=O)CSCC#N)C(=O)N2C(C(=O)O)=C(CSc3nnnn3C)CS[C@@H]21"
  assigned class: "inactive"
- molecule: "O=P(O)(OCc1ccccc1)OCc1ccccc1"
  assigned class: "active"
- molecule: "COc1ccccc1C=CC=O"
  assigned class: "inactive"
- molecule: "CC(C)(C)NC[C@H](O)COc1nsnc1N1CCOCC1"
  assigned class: "inactive"
- molecule: "CC(C)n1nc(-c2cc3cc(O)ccc3[nH]2)c2c(N)ncnc21"
  assigned class: "active"
- molecule: "CC(C)(C)C(=O)O"
  assigned class: "inactive"
- molecule: "CCNC(=O)N1CCN(CCCC(c2ccc(F)cc2)c2ccc(F)cc2)CC1"
  assigned class: "inactive"
- molecule: "CC(O)(c1ccc(Cl)cc1)c1ccc(Cl)cc1"
  assigned class: "inactive"
- molecule: "Cc1ccc(C(=O)C(C)CN2CCCCC2)cc1 (stereo not given)"
  assigned class: "inactive"
- molecule: "C=CC(=O)OCCOC(=O)CCC(=O)O"
  assigned class: "inactive"
- molecule: "CC(=O)c1nccs1"
  assigned class: "inactive"
- molecule: "Cc1c(C(=O)NCCO)[n+](=O)c2ccccc2n1[O-]"
  assigned class: "inactive"
- molecule: "Cc1cc(CC(C)CC(C)(C)C)n(O)c(=O)c1 (stereo not given) (tested in a mixture with another compound)"
  assigned class: "active"
- molecule: "c1ccc([C@H]2CN3CCSC3=N2)cc1"
  assigned class: "inactive"
- molecule: "NCc1ccccc1"
  assigned class: "inactive"
- molecule: "O=C(CCS)OCC(COC(=O)CCS)(COC(=O)CCS)COC(=O)CCS"
  assigned class: "inactive"
- molecule: "C[C@H]1O[C@@H](n2cc(F)c(=O)[nH]c2=O)[C@H](O)[C@@H]1O"
  assigned class: "active"
- molecule: "C1CCC(C(CC2CCCCN2)C2CCCCC2)CC1 (stereo not given)"
  assigned class: "active"
- molecule: "O=C(NCN1CCOCC1)c1cnccn1"
  assigned class: "inactive"
- molecule: "OC[C@H]1O[C@H](O[C@H]2O[C@H](CO)[C@@H](O)[C@H](O)[C@H]2O)[C@H](O)[C@@H](O)[C@@H]1O"
  assigned class: "inactive"
- molecule: "COc1cc([C@@H]2c3cc4c(cc3[C@H](O)[C@H]3COC(=O)[C@H]23)OCO4)cc(OC)c1OC"
  assigned class: "inactive"
- molecule: "NC(=O)CC[C@@H]1NC(=O)[C@H](Cc2ccccc2)NC(=O)[C@H](Cc2ccc(O)cc2)NC(=O)CCSSC[C@@H](C(=O)N2CCC[C@H]2C(=O)N[C@@H](CCCN=C(N)N)C(=O)NCC(N)=O)NC(=O)[C@H](CC(N)=O)NC1=O"
  assigned class: "inactive"
